Listed here are compounds together with their documented viability, T/C.
System: 991263-137-R1-J2-PDC complex spheroid viability
assayOverview: Anticancer human tumor 991263-137-R1-J2-PDC patient-derived colon adenocarcinoma cell line growth inhibition [POLQ]
measurementSetup: second compound 10 µM; first compound 0.1 µM; stronger effect = lower value

compound	testTarget	viability, T/C / %
CC(C)n1c(=O)n(C)c2cnc3cc(F)c(-c4ccc(OCCCN5CCCCC5)nc4)cc3c21 + Nc1ccc(C#CCN(C(=O)Cc2ncc(C(F)(F)F)cc2C(F)(F)F)c2ccc(F)cc2)nn1	991263-137-R1-J2-PDC complex spheroid viability	96.2
COc1cc(C2c3cc4c(cc3C(OC3OC5COC(C)OC5C(O)C3O)C3COC(=O)C23)OCO4)cc(OC)c1O (stereo not drawn) + Cc1cccc(N(C)C(=O)C2C(O)CCN2c2nc(C)cc(C(F)(F)F)c2C#N)c1	991263-137-R1-J2-PDC complex spheroid viability	96.3
CCc1cc2c(N3CCc4c(cc(Cn5ccnc5)cc4-c4cn(C)nc4C(F)(F)F)C3=O)ccnc2c(OC)n1 + COC1C(OC(N)=O)C(O)C(Oc2ccc3c(O)c(NC(=O)c4ccc(O)c(CC=C(C)C)c4)c(=O)oc3c2C)OC1(C)C	991263-137-R1-J2-PDC complex spheroid viability	106

---

Listed here are molecules together with their documented viability, T/C.
System: 991263-137-R1-J2-PDC complex spheroid viability
assayOverview: Anticancer human tumor 991263-137-R1-J2-PDC cell line growth inhibition [POLQ];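 further: spheroids exposed to compounds for 7 days before readout; 100% = DMSO vehicle control viability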
measurementSetup: second compound 0.1 µM; first compound 3.16 µM; stronger effect = lower value
reportedMetric: viability, T/C (%)

molecule	testTarget	quantityUnit	recordedValue
O=c1[nH]cc(F)c(=O)[nH]1 + Nc1ccc(C#CCN(C(=O)Cc2ncc(C(F)(F)F)cc2C(F)(F)F)c2ccc(F)cc2)nn1	991263-137-R1-J2-PDC complex spheroid viability	%	87
Nc1ccn(C2OC(CO)C(O)C2(F)F)c(=O)n1 (stereo not drawn) + Nc1ccc(C#CCN(C(=O)Cc2ncc(C(F)(F)F)cc2C(F)(F)F)c2ccc(F)cc2)nn1	991263-137-R1-J2-PDC complex spheroid viability	%	59.9
CCc1cc2c(N3CCc4c(cc(Cn5ccnc5)cc4-c4cn(C)nc4C(F)(F)F)C3=O)ccnc2c(OC)n1 + Nc1ccc(C#CCN(C(=O)Cc2ncc(C(F)(F)F)cc2C(F)(F)F)c2ccc(F)cc2)nn1	991263-137-R1-J2-PDC complex spheroid viability	%	96

---

Tested on: 991263-137-R1-J2-PDC complex spheroid viability
assayOverview: Anticancer human tumor 991263-137-R1-J2-PDC cell line growth inhibition [POLQ];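 further: spheroids exposed to compounds for 7 days before readout; 100% = DMSO vehicle control viability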
measurementSetup: second compound 0.1 µM; first compound 10 µM; stronger effect = lower value
// classify: if (viability, T/C < 80%) yes (1) else no (0)

compound	classification
CC1COCCN1c1cc(-c2ccnn2C)c2ccnc(-c3ccn[nH]3)c2n1 (stereo unspecified) + Nc1ccc(C#CCN(C(=O)Cc2ncc(C(F)(F)F)cc2C(F)(F)F)c2ccc(F)cc2)nn1	yes (1)
CNCc1ccc(-c2[nH]c3cc(F)cc4c3c2CCNC4=O)cc1 + Nc1ccc(C#CCN(C(=O)Cc2ncc(C(F)(F)F)cc2C(F)(F)F)c2ccc(F)cc2)nn1	no (0)
O=C(c1cc(Cc2n[nH]c(=O)c3ccccc23)ccc1F)N1CCN(C(=O)C2CC2)CC1 + Nc1ccc(C#CCN(C(=O)Cc2ncc(C(F)(F)F)cc2C(F)(F)F)c2ccc(F)cc2)nn1	no (0)
O=C(Nc1ccc(O)c(NS(=O)(=O)c2ccc(F)cc2)c1)c1ccc(-c2ccccc2)cc1 + Cc1cccc(N(C)C(=O)C2C(O)CCN2c2nc(C)cc(C(F)(F)F)c2C#N)c1	no (0)
CC1COCCN1c1cc(C2(O)CC3CCC(C2)O3)c2cnn(-c3ccn[nH]3)c2n1 (stereo unspecified) + Nc1ccc(C#CCN(C(=O)Cc2ncc(C(F)(F)F)cc2C(F)(F)F)c2ccc(F)cc2)nn1	yes (1)
CC(C)n1c(=O)n(C)c2cnc3cc(F)c(-c4ccc(OCCCN5CCCCC5)nc4)cc3c21 + Nc1ccc(C#CCN(C(=O)Cc2ncc(C(F)(F)F)cc2C(F)(F)F)c2ccc(F)cc2)nn1	no (0)
COc1cc2cc(C(=O)CCC(=O)O)sc2cc1OC + COC1C(OC(N)=O)C(O)C(Oc2ccc3c(O)c(NC(=O)c4ccc(O)c(CC=C(C)C)c4)c(=O)oc3c2C)OC1(C)C	no (0)
COc1ccc([C@@H](O)c2cc(-c3ncnc4cc(N5CCOCC5)ccc34)c(F)cc2Cl)nn1 + Cc1cccc(N(C)C(=O)C2C(O)CCN2c2nc(C)cc(C(F)(F)F)c2C#N)c1	yes (1)
Nc1ccn(C2OC(CO)C(O)C2(F)F)c(=O)n1 (stereo unspecified) + Cc1cccc(N(C)C(=O)C2C(O)CCN2c2nc(C)cc(C(F)(F)F)c2C#N)c1	yes (1)
CC1COCCN1c1cc(C2(S(C)(=N)=O)CC2)nc(-c2ccnc3[nH]ccc23)n1 (stereo unspecified) + COC1C(OC(N)=O)C(O)C(Oc2ccc3c(O)c(NC(=O)c4ccc(O)c(CC=C(C)C)c4)c(=O)oc3c2C)OC1(C)C	yes (1)
CCc1cc2c(N3CCc4c(cc(Cn5ccnc5)cc4-c4cn(C)nc4C(F)(F)F)C3=O)ccnc2c(OC)n1 + Nc1ccc(C#CCN(C(=O)Cc2ncc(C(F)(F)F)cc2C(F)(F)F)c2ccc(F)cc2)nn1	no (0)
C=CC(=O)N1CCN(c2nc(=O)n(-c3c(C)ccnc3C(C)C)c3nc(-c4c(O)cccc4F)c(F)cc23)C(C)C1 (stereo unspecified) + Nc1ccc(C#CCN(C(=O)Cc2ncc(C(F)(F)F)cc2C(F)(F)F)c2ccc(F)cc2)nn1	no (0)
COc1cccc2c1C(=O)c1c(O)c3c(c(O)c1C2=O)CC(O)(C(=O)CO)CC3OC1CC(N)C(O)C(C)O1 (stereo unspecified) + COC1C(OC(N)=O)C(O)C(Oc2ccc3c(O)c(NC(=O)c4ccc(O)c(CC=C(C)C)c4)c(=O)oc3c2C)OC1(C)C	yes (1)
CCCS(=O)(=O)Nc1ccc(F)c(C(=O)c2c[nH]c3ncc(-c4ccc(Cl)cc4)cc23)c1F + Nc1ccc(C#CCN(C(=O)Cc2ncc(C(F)(F)F)cc2C(F)(F)F)c2ccc(F)cc2)nn1	no (0)
CNCc1ccc(-c2[nH]c3cc(F)cc4c3c2CCNC4=O)cc1 + Cc1cccc(N(C)C(=O)C2C(O)CCN2c2nc(C)cc(C(F)(F)F)c2C#N)c1	no (0)
COc1ccc([C@@H](O)c2cc(-c3ncnc4cc(N5CCOCC5)ccc34)c(F)cc2Cl)nn1 + Nc1ccc(C#CCN(C(=O)Cc2ncc(C(F)(F)F)cc2C(F)(F)F)c2ccc(F)cc2)nn1	yes (1)
O=C(Nc1ccc(O)c(NS(=O)(=O)c2ccc(F)cc2)c1)c1ccc(-c2ccccc2)cc1 + COC1C(OC(N)=O)C(O)C(Oc2ccc3c(O)c(NC(=O)c4ccc(O)c(CC=C(C)C)c4)c(=O)oc3c2C)OC1(C)C	no (0)
C#Cc1c(F)ccc2cc(O)cc(-c3ncc4c(N5CC6CCC(C5)N6)nc(OCC56CCCN5CC(F)C6)nc4c3F)c12 (stereo unspecified) + Nc1ccc(C#CCN(C(=O)Cc2ncc(C(F)(F)F)cc2C(F)(F)F)c2ccc(F)cc2)nn1	no (0)
CCc1cc2c(N3CCc4c(cc(Cn5ccnc5)cc4-c4cn(C)nc4C(F)(F)F)C3=O)cc(C)nc2c(OC)n1 + Nc1ccc(C#CCN(C(=O)Cc2ncc(C(F)(F)F)cc2C(F)(F)F)c2ccc(F)cc2)nn1	no (0)

---

Listed here are molecules together with their documented viability, T/C.
System: 991263-137-R1-J2-PDC complex spheroid viability
assayOverview: Anticancer human tumor 991263-137-R1-J2-PDC cell line growth inhibition [POLQ];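 further: spheroids exposed to compounds for 7 days before readout; 100% = DMSO vehicle control viability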
measurementSetup: second compound 0.1 µM; first compound 10 µM; stronger effect = lower value

molecule	viability, T/C
O=C(c1cc(Cc2n[nH]c(=O)c3ccccc23)ccc1F)N1CCN(C(=O)C2CC2)CC1 + COC1C(OC(N)=O)C(O)C(Oc2ccc3c(O)c(NC(=O)c4ccc(O)c(CC=C(C)C)c4)c(=O)oc3c2C)OC1(C)C	85.6%
C#Cc1c(F)ccc2cc(O)cc(-c3ncc4c(N5CC6CCC(C5)N6)nc(OCC56CCCN5CC(F)C6)nc4c3F)c12 (stereo unspecified) + Cc1cccc(N(C)C(=O)C2C(O)CCN2c2nc(C)cc(C(F)(F)F)c2C#N)c1	92.2%
C#Cc1c(F)ccc2cc(O)cc(-c3ncc4c(N5CC6CCC(C5)N6)nc(OCC56CCCN5CC(F)C6)nc4c3F)c12 (stereo unspecified) + COC1C(OC(N)=O)C(O)C(Oc2ccc3c(O)c(NC(=O)c4ccc(O)c(CC=C(C)C)c4)c(=O)oc3c2C)OC1(C)C	104%
O=c1[nH]cc(F)c(=O)[nH]1 + Nc1ccc(C#CCN(C(=O)Cc2ncc(C(F)(F)F)cc2C(F)(F)F)c2ccc(F)cc2)nn1	80.9%
CNCc1ccc(-c2[nH]c3cc(F)cc4c3c2CCNC4=O)cc1 + COC1C(OC(N)=O)C(O)C(Oc2ccc3c(O)c(NC(=O)c4ccc(O)c(CC=C(C)C)c4)c(=O)oc3c2C)OC1(C)C	95.9%
COc1cc(C2c3cc4c(cc3C(OC3OC5COC(C)OC5C(O)C3O)C3COC(=O)C23)OCO4)cc(OC)c1O (stereo unspecified) + Nc1ccc(C#CCN(C(=O)Cc2ncc(C(F)(F)F)cc2C(F)(F)F)c2ccc(F)cc2)nn1	74.5%
CCc1cc2c(N3CCc4c(cc(Cn5ccnc5)cc4-c4cn(C)nc4C(F)(F)F)C3=O)ccnc2c(OC)n1 + Cc1cccc(N(C)C(=O)C2C(O)CCN2c2nc(C)cc(C(F)(F)F)c2C#N)c1	88.3%
O=c1[nH]cc(F)c(=O)[nH]1 + COC1C(OC(N)=O)C(O)C(Oc2ccc3c(O)c(NC(=O)c4ccc(O)c(CC=C(C)C)c4)c(=O)oc3c2C)OC1(C)C	62.5%
COc1cc2cc(C(=O)CCC(=O)O)sc2cc1OC + Nc1ccc(C#CCN(C(=O)Cc2ncc(C(F)(F)F)cc2C(F)(F)F)c2ccc(F)cc2)nn1	93.8%
CC1COCCN1c1cc(C2(O)CC3CCC(C2)O3)c2cnn(-c3ccn[nH]3)c2n1 (stereo unspecified) + COC1C(OC(N)=O)C(O)C(Oc2ccc3c(O)c(NC(=O)c4ccc(O)c(CC=C(C)C)c4)c(=O)oc3c2C)OC1(C)C	25%
CCc1cc2c(N3CCc4c(cc(Cn5ccnc5)cc4-c4cn(C)nc4C(F)(F)F)C3=O)cc(C)nc2c(OC)n1 + Cc1cccc(N(C)C(=O)C2C(O)CCN2c2nc(C)cc(C(F)(F)F)c2C#N)c1	99.8%
